assayed system: Zif268 wildtype (three zinc fingers, phage displayed) (Mus musculus, UniProt P08046 P08046:333-421)
protocol details: apparent Kd interpolated from microarray signal 0.150
recorded metric: pKd
// returns pKd (minus log10 of molar concentration), number only

Prompt: Report pKd for Zif268 site GAG (dsDNA, [none]) DNA 1: TATATAGCGGAGGCGTATATATCAAGTCAATCGGTCC DNA 2: GGACCGATTGACTTGATATATACGCCTCCGCTATATA
Response: 7.12
